Data provenance is paper PMC8967717.

Target under test: SARS-CoV-2 wild-type spike receptor-binding domain (SARS-CoV-2, WT (MN908947), UniProt P0DTC2)
Measurement kind: binding result

What does the data say about its binding result? Entry: XGv304 (antibody, V domains shown) VH: EVQLVESGGGLIQPGGSLRLSCEASEITVSSNYMRWVRQAPGKGLEWVSLIYAGGSTFYADSVKGRFTISRDNSKNTLYLQMNSLRVEDTAVYYCARDLMVYGMDVWGQGTTVTVSS VL: DIQLTQSPSSLSASVGDRVTITCRASQGISSYLAWYQQKPGKAPNLLIYGASTLQSGVPSRFSGSGSGTDFTLTISSLQPEDFATYYCQHLNSDPLTFGGGTKVEIK binds

Next binder: XGV017 (antibody, V domains shown) VH: EVQLVESGGGLIQPGGSLRLSCAASGVTVSSNYMNWVRQAPGKGLEWVSVIYPGGTRDYSDSVKGRFTISRDSSKNTLYLQMNSLRDEDTAFYYCARDLVVYGMDVWGQGTTVTVTS VL: DIQLTQSPSSLSASVGDRVTITCRASQGISSYLAWYQQKPGKAPKLLIYAASTLQSGVPSRFSGSGSGTDFTLTISSLQPEDFAAYYCQLLNTYPLTFGGGTKVEIK binds
